System: HOP-62 NSCLC
assay.info: NCI-60 one-dose screen, 48 h
measurement.setup: 10 µM unless noted
About 83,000 compounds went through this panel and 20% of them were active in at least one assay; those are over-represented in the sample as a whole. Activity calls are given as the source filed them. How the source made its calls: active means growth percent below 10; inactive means the rest.
Output constraint: value belongs to label 1 (active), label 0 (inactive)

Recorded call for "Cn1c(=O)c2c(ncn2CC[N+](C)(C)C)n(C)c1=O" ?
label 0

Name the outcome recorded for CCOC(=O)C12CCCC1=CC(=O)CC2 (stereo unspecified) in the assay.
label 0

Test call for this compound, please: "O=C1O[C@H]([C@H](O)CO)C(O)=C1O"
label 0

Please indicate how the test categorized "CCN(CC)CCCCNc1ccc(NCCCCN(CC)CC)c2c1C(=O)c1ccccc1C2=O" .
label 0

Recorded call for "O=C1C(=O)N(CCCCn2cc(CO)nn2)c2ccccc21" ?
label 0

Outcome? "COc1ccc(C(=O)c2sc3nc4c(cc3c2N)CCCC4)cc1OC"
label 0

Answer briefly: the call reported for "c1ccc2sc(SCCCn3ccnc3)nc2c1" in this assay.
label 0

Can you look up the reported call for C=CC[N+]1(CC)CCN=C1CCCCCCCCCCCCCCCCC (stereo unspecified) for me?
label 1

Called result for N=S(=O)(NC(=O)c1ccc(Cl)cc1Cl)c1ccc(Br)s1 (stereo unspecified)
label 0

Look up the recorded call for "CCCCCCCCCCCCCCCCNCCC[C@@H](C)[C@H]1CC[C@H]2[C@@H]3[C@H](OCCCN)C[C@@H]4C[C@H](OCCCN)CC[C@]4(C)[C@H]3C[C@H](OCCCN)[C@]12C" in this test.
label 1

Recorded test outcome, item "CCOC(=O)c1c2c(n3ccc(NC(=O)CCN4CCCCC4)cc13)C(=O)c1ncccc1C2=O"
label 1

----------
Tested on: A549/ATCC NSCLC
assay.info: NCI-60 one-dose screen, 48 h
measurement.setup: 10 µM unless noted
About 83,000 compounds went through this panel and 20% of them were active in at least one assay; those are over-represented in the sample as a whole. Activity calls are given as the source filed them. Rule for the calls: active = growth percent below 10; inactive = the rest.
Choose one outcome from this list and give only that: 1.0 = active, 0.0 = inactive

Status in this test for "CC(=O)O[C@H]1CC[C@]2(C)[C@H]3CC[C@@H]4[C@H]5[C@H](C(C)C)CC[C@]5(C(=O)OCC(CO)(CO)N=C(N)N)CC[C@@]4(C)[C@]3(C)CC[C@H]2C1(C)C" ?
0.0

Tell me the assay call for "COc1cc(OC)c(/C=C/S(=O)(=O)Cc2cnc(OC)c(N)c2)c(OC)c1" please.
1.0

Called result for "C=C(C[n+]1ccccc1)[C@@H]1CC[C@]2(C(=O)OC)CC[C@]3(C)[C@H](CC[C@@H]4[C@@]5(C)CC[C@H](O)C(C)(C)[C@@H]5CC[C@]43C)[C@@H]12"
0.0

For CC1=NNC(=O)C1C (stereo not drawn) , what call appears in the results of this test?
0.0

Outcome? "O=c1c2cccc3c(Nc4c(F)cccc4F)ccc(c32)c2nc3ccccc3n12"
0.0

Just curious, what result did OC(c1cccc(C(F)(F)F)c1)c1cnccc1NC1CCCCCC1 (stereo not drawn) get here?
0.0

Fill in: this test's call for "CN(C)c1ccc(/C=C\C2=[N+](C)c3ccccc3C2(C)C)cc1" is ___
1.0

Which outcome was entered for the compound "CN(C)C(=O)c1cc2cnc(Nc3ccc(-c4csc5c(=O)cc(N6CCNCC6)oc45)cc3)nc2n1C1CCCC1" in this test?
1.0

Hi team, can someone confirm the assay call for "Cc1ccc2cnc(N)c(C#Cc3cncc(C(=O)Nc4ccc(CN5CCN(C)CC5)c(C(F)(F)F)c4)c3)c2c1" ?
1.0

Dear colleague, could you share the recorded outcome for "COc1ccc(C(=O)/C=C/c2c[n+](=O)c3ccc(F)cc3n2[O-])cc1" when you have a moment?
0.0

Test call, this compound: "Cc1cc2cc3cc(C)c(N(C)C)cc3nc2cc1N(C)C"
1.0

Record lookup: outcome of this test for "CCCC(=O)Oc1ccc(/C(=C(/CC)Cc2ccccc2)c2ccc(OCCN3CCCC3)cc2)cc1" ?
0.0

What did the test return for "C[C@]12C[C@@H](c3ccoc3)OC(=O)[C@@H]1CC[C@]1(C)[C@@H]2CC[C@@H](O)[C@]1(C)O" ?
0.0

Field: outcome | Entry: "COc1ccc(-c2cc(-c3cccnc3)nc3sc4c(=O)n(-c5ccc(C)cc5)cnc4c23)cc1OC"
0.0

For "Cc1nc2nc(N)nc(N)c2nc1C" , which call appears in the assay record?
0.0

What did this assay record as the result for "COc1cc2c(=O)n(CC3CCCCC3)c3c4cc[nH]c4ncc3c2cc1OC" ?
0.0

So what was the verdict on "COc1cnc2c(c1)C(=O)c1c-2n(CCCN2CCCC2)c(=O)c2cc([N+](=O)[O-])ccc12" in this test?
1.0

GET /call?item= "COc1cc(-c2c3c(nc4c2c(C)nn4-c2ccccc2)-c2ccccc2C(=O)C3=O)cc(OC)c1OC" returns the recorded outcome of this test.
0.0
